MEASURED ON: Nuclear receptor ROR-gamma (Homo sapiens)
Sequence (P51449 whole entry): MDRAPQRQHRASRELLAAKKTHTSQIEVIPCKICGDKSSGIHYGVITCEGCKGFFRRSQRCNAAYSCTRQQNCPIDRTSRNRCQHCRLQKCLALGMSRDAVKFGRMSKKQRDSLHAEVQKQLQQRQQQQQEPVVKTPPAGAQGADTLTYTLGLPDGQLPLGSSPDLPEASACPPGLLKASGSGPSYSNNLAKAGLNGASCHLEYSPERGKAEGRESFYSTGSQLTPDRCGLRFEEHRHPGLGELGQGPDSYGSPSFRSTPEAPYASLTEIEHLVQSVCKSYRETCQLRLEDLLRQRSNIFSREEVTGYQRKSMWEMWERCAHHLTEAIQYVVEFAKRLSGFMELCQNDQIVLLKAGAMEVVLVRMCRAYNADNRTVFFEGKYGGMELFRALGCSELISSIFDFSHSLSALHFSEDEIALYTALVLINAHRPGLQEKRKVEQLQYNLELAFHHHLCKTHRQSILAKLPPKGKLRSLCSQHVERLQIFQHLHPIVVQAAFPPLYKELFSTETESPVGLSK
TEST DESCRIPTION: Inverse agonist activity at RORgammat in human whole blood assessed as reduction in IL17A production
REPORTED PROPERTY: EC50 (nM)
Numbers only; they are read as nM.

For record "CC(C)(C)NS(=O)(=O)c1ccc(-c2sc(C(=O)N[C@H]3C[C@H](C(=O)O)C3)nc2CC2CCCCC2)c2ccccc12" the listed EC50 is 82

====

MEASURED ON: UniProtKB P35367
Sequence (P35367 whole entry): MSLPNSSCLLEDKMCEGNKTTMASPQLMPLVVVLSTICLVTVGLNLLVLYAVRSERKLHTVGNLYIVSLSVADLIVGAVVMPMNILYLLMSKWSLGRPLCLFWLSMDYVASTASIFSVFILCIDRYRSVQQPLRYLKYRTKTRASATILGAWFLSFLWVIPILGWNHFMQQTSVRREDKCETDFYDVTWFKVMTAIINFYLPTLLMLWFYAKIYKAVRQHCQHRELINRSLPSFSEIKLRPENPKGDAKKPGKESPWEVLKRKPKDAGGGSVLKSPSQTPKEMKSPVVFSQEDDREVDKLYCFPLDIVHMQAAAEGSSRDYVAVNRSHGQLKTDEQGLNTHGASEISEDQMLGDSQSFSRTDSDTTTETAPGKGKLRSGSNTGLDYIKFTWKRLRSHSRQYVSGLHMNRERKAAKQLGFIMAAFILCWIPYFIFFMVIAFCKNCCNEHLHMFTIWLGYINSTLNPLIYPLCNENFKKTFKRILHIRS
TEST DESCRIPTION: Displacement of [3H]pyrilamine from human recombinant histamine H1 receptor after 60 mins by scintillation counting analysis
REPORTED PROPERTY: pIC50
pIC50 (log units): -log10 of the concentration in mol/L.

Entry "CC(C)(C)NS(=O)(=O)c1ccc(-c2sc(C(=O)N[C@H]3C[C@H](C(=O)O)C3)nc2CC2CCCCC2)c2ccccc12" under UniProtKB P35367 had pIC50 of 8.77

====

MEASURED ON: Cytochrome P450 3A4 (Homo sapiens)
Sequence (P08684 whole entry): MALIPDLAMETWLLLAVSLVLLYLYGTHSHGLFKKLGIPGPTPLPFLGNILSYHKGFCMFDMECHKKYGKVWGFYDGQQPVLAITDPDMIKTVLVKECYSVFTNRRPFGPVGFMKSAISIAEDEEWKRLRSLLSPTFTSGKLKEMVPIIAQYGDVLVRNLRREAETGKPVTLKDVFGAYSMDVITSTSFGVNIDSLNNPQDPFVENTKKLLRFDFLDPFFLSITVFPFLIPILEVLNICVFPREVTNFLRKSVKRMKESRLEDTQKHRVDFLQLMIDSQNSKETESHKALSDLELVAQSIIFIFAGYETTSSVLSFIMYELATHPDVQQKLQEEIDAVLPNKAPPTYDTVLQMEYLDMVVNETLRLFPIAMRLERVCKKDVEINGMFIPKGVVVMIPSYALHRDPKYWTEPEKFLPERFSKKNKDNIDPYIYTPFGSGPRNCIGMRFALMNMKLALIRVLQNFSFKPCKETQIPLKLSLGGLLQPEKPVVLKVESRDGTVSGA
TEST DESCRIPTION: Inhibition of CYP3A4 (unknown origin)
Type: ADME
Entries annotated with measured INH

Below: 5 compounds and their reported INH.
MOL SMILES: CC(C)(C)NS(=O)(=O)c1ccc(-c2sc(C(=O)NCCN3CCOCC3)nc2CC2CCCCC2)c2ccccc12
INH: 7.1 µM
//
MOL SMILES: CC(C)(O)CNC(=O)c1nc(CC2CCCCC2)c(-c2ccc(S(=O)(=O)NC3(C#N)CC3)c3ccccc23)s1
INH: 0.9 µM
//
MOL SMILES: C[C@H](NS(=O)(=O)c1ccc(-c2sc(C(=O)NCC(C)(C)O)nc2CC2CCC2)c(C(F)F)c1)C(F)(F)F
INH: > 10 µM
//
MOL SMILES: CC(C)(C)NS(=O)(=O)c1ncc(-c2sc(C(=O)N[C@H]3C[C@H](C(=O)O)C3)nc2CC2CCCCC2)c2ccccc12
INH: > 10 µM
//
MOL SMILES: CC(C)(C)NS(=O)(=O)c1ccc(-c2sc(C(=O)N[C@H]3C[C@H](C(=O)O)C3)nc2CC2CCCCC2)c2ccccc12
INH: > 10 µM

Form: compound = "CC(C)(O)CNC(=O)c1nc(CC2CCCCC2)c(-c2ccc(S(=O)(=O)NC(C)(C)C)c(Cl)c2C(F)F)s1" ; INH = 6.9 µM

INH for "Cc1c(S(=O)(=O)NC(C)(C)C)ccc(-c2sc(C(=O)N[C@H]3C[C@H](C(=O)O)C3)nc2CC2CCCCC2)c1OC(F)F" is > 10 µM

INH for "CC(C)(O)CNC(=O)c1nc(CC2CCCCC2)c(-c2cnc(S(=O)(=O)NC(C)(C)C)c3ccccc23)s1" is > 10 µM

Given item "CC(C)(C)NS(=O)(=O)c1ccc(-c2sc(C(=O)N[C@H]3C[C@H](C(=O)O)C3)nc2CC2CCCCC2)c(Cl)c1" , the value recorded as its INH is > 10 µM

Briefly, INH measured for "C[C@H](NC(=O)c1cc(-c2sc(C(=O)N[C@H]3C[C@H](C(=O)O)C3)nc2CC2CCCCC2)cc(C2(C)CC2)c1)C(F)(F)F" : > 10 µM

INH for "CCC(C)(C)NS(=O)(=O)c1ccc(-c2sc(C(=O)N[C@H]3C[C@H](C(=O)O)C3)nc2CC2CCCCC2)c(Cl)c1C" is > 10 µM

====

MEASURED ON: Beta-1 adrenergic receptor (Homo sapiens, UniProt P08588)
Sequence (P08588 whole entry): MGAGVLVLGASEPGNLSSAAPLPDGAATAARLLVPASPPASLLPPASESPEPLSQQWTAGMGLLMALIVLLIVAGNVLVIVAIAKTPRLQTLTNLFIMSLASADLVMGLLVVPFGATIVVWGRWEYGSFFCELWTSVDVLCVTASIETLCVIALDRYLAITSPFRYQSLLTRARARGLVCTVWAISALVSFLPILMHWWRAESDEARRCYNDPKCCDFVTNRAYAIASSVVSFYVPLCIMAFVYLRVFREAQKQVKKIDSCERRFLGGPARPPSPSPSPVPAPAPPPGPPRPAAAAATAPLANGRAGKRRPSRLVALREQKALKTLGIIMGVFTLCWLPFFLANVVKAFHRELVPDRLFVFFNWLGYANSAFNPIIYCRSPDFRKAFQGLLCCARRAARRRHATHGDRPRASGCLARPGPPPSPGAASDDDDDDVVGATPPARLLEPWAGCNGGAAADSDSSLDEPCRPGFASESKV
REPORTED PROPERTY: pIC50
Units for pIC50: none; it is -log10 of a concentration expressed in mol/L.

Sure, the documented pIC50 for "CC(C)(C)NS(=O)(=O)c1ccc(-c2sc(C(=O)N[C@H]3C[C@H](C(=O)O)C3)nc2CC2CCCCC2)c2ccccc12" is 6.53

====

TEST DESCRIPTION: Oral bioavailability in Sprague-Dawley rat at 5 mg/kg
Assay type: ADME, organism-based
PROTOCOL CONDITIONS: in vivo
REPORTED PROPERTY: bioavailability (%)
Use % as the unit, but write only the number.

MOL SMILES: C[C@H](NS(=O)(=O)c1ccc(-c2sc(C(=O)NCC(C)(C)O)nc2CC2CCC2)c(C(F)F)c1)C(F)(F)F
REPORTED PROPERTY: bioavailability
ASSAY VALUE: 32.5

MOL SMILES: CC(C)(C)NS(=O)(=O)c1ccc(-c2sc(C(=O)N[C@H]3C[C@H](C(=O)O)C3)nc2CC2CCCCC2)c(Cl)c1
REPORTED PROPERTY: bioavailability
ASSAY VALUE: 20

MOL SMILES: C[C@H](NS(=O)(=O)c1ccc(-c2sc(C(=O)NC3CCS(=O)(=O)CC3)nc2CC2CC2)c2ccccc12)C(F)(F)F
REPORTED PROPERTY: bioavailability
ASSAY VALUE: 42.5

MOL SMILES: CC(C)(C)NS(=O)(=O)c1ccc(-c2sc(C(=O)N[C@H]3C[C@H](C(=O)O)C3)nc2CC2CCCCC2)c2ccccc12
REPORTED PROPERTY: bioavailability
ASSAY VALUE: 20

Form: compound = "C[C@H](NS(=O)(=O)c1ccc(-c2sc(C(=O)NCC(C)(C)O)nc2CC2CC2)c2ccccc12)C(F)(F)F" ; bioavailability = 14.8

====

MEASURED ON: Melanocortin receptor 4 (Homo sapiens)
Sequence (P32245 whole entry): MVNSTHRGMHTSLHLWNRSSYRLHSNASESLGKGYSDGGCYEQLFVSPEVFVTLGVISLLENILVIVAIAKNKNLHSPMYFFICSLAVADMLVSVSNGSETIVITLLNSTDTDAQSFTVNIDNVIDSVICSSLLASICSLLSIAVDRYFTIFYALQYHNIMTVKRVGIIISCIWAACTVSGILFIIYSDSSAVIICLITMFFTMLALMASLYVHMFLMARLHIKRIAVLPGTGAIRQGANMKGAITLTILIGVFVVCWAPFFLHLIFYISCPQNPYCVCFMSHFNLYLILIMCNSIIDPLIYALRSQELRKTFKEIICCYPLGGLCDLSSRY
TEST DESCRIPTION: Displacement of [125I]NDP-alpha -MSH from human recombinant MC4 receptor after 120 mins by scintillation counting analysis
REPORTED PROPERTY: pIC50
Scale for pIC50: -log10 of concentration given in mol/L; no unit attached.

# pIC50 (compound: "CC(C)(C)NS(=O)(=O)c1ccc(-c2sc(C(=O)N[C@H]3C[C@H](C(=O)O)C3)nc2CC2CCCCC2)c2ccccc12" ) is 9.68

====

MEASURED ON: Kappa-type opioid receptor (Homo sapiens, UniProt P41145)
Sequence (P41145 whole entry): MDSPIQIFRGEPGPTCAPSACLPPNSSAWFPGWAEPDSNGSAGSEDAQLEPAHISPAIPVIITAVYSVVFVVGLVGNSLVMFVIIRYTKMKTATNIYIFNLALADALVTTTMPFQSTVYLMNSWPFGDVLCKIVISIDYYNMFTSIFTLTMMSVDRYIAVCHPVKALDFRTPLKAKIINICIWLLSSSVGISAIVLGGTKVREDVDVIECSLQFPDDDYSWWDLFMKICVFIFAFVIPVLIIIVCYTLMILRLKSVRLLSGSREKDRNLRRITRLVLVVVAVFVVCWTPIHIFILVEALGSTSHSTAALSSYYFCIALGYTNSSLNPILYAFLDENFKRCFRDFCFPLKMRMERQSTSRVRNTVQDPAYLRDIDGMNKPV
REPORTED PROPERTY: IC50 (nM)
The reply should be a number in nM, with the unit left off.

Field IC50 (Kappa-type opioid receptor (Homo sapiens, UniProt P41145)), entry "CC(C)(C)NS(=O)(=O)c1ccc(-c2sc(C(=O)N[C@H]3C[C@H](C(=O)O)C3)nc2CC2CCCCC2)c2ccccc12" : 1.1

====

MEASURED ON: Cytochrome P450 1A2 (Homo sapiens)
Sequence (P05177 whole entry): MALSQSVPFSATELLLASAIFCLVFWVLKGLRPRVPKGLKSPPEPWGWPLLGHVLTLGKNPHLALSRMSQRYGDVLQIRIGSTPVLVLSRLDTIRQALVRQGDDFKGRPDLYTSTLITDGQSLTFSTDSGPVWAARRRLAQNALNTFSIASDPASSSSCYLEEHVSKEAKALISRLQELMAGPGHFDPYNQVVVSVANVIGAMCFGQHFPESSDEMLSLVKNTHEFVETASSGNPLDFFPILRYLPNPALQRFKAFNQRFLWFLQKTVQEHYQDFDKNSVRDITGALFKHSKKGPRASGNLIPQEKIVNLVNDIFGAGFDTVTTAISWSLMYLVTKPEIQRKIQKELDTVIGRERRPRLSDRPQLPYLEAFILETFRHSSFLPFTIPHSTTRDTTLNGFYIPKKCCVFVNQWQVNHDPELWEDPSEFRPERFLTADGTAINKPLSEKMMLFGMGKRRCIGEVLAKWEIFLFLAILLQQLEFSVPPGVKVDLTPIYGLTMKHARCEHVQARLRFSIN
TEST DESCRIPTION: Inhibition of CYP1A2 (unknown origin)
Format: ADME
Reported INH is given for each of the following molecules.

Worked set:
MOL SMILES: CC(C)(C)NS(=O)(=O)c1ccc(-c2sc(C(=O)N[C@H]3C[C@H](C(=O)O)C3)nc2CC2CCCCC2)c(C(F)(F)F)c1
INH: > 10 µM
//
MOL SMILES: C[C@H](NS(=O)(=O)c1ccc(-c2sc(C(=O)NCC(C)(C)O)nc2CC2CC2)c2ccccc12)C(F)(F)F
INH: > 10 µM
//
MOL SMILES: CC(C)(C)NS(=O)(=O)c1ccc(-c2sc(C(=O)N3CC4(C3)CS(=O)(=O)C4)nc2CC2CCCCC2)c(Cl)c1Cl
INH: > 10 µM
//
MOL SMILES: CC(C)(C)NS(=O)(=O)c1ccc(-c2sc(C(=O)N[C@H]3C[C@H](C(=O)O)C3)nc2CC2CCCCC2)c2ccccc12
INH: > 10 µM
//
MOL SMILES: CC(C)(C)NS(=O)(=O)c1ccc(-c2sc(C(=O)NCCN3CCOCC3)nc2CC2CCCCC2)c2ccccc12
INH: > 10 µM

Data point: "C[C@H](NC(=O)c1cc(-c2sc(C(=O)N[C@H]3C[C@H](C(=O)O)C3)nc2CC2CCCCC2)cc(C2(C)CC2)c1)C(F)(F)F" ; INH = > 10 µM

Measured INH of "Cc1c(S(=O)(=O)NC(C)(C)C)ccc(-c2sc(C(=O)N[C@H]3C[C@H](C(=O)O)C3)nc2CC2CCCCC2)c1OC(F)F" : > 10 µM

====

Recorded Emax at 16 h, 1 µM for the following compounds
MEASURED ON: UniProt:O75469
Sequence (O75469 whole entry, the tested form may be a part): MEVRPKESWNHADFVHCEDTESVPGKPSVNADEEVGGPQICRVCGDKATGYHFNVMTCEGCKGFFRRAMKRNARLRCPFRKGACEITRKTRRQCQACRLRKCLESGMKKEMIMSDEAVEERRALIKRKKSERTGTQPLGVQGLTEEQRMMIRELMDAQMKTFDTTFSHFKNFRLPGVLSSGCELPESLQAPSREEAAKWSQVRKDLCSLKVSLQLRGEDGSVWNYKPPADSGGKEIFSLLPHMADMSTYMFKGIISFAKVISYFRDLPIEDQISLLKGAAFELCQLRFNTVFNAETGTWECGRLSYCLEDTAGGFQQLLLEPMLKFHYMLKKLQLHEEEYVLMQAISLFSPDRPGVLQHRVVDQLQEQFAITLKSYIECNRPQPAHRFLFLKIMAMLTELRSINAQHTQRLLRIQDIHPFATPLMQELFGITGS
TEST DESCRIPTION: […] at PXR LBD (unknown origin) expressed in HEK293 cells […] at 1 uM after 16 hrs by luciferase reporter gene assay relative to rifampicin
Format: ADME, cell-based
PROTOCOL CONDITIONS: HEK293 cells expressing PXR LBD, read-out: Efficacy
Hi! Could you send only the number? It should be in %, unit omitted.

MOL SMILES: CC(C)(C)NS(=O)(=O)c1ccc(-c2sc(C(=O)NC3CS(=O)(=O)C3)nc2CC2CCCCC2)c2ccccc12
Emax at 16 h, 1 µM, %: 181

MOL SMILES: C[C@H](NS(=O)(=O)c1ccc(-c2sc(C(=O)NCC(C)(C)O)nc2C2CCCCC2)c(Cl)c1Cl)C(F)(F)F
Emax at 16 h, 1 µM, %: 60

MOL SMILES: CC(C)(C)NS(=O)(=O)c1ccc(-c2sc(C(=O)N3CC4(CCS(=O)(=O)CC4)C3)nc2CC2CCCCC2)c2ccccc12
Emax at 16 h, 1 µM, %: 116

MOL SMILES: CCS(=O)(=O)c1ccc(CNC(=O)c2nc(CC3CCCCC3)c(-c3ccc(S(=O)(=O)NC(C)(C)C)c4ccccc34)s2)cc1
Emax at 16 h, 1 µM, %: 26

MOL SMILES: CC(C)(O)CNC(=O)c1nc(CC2CCCCC2)c(-c2ccc(S(=O)(=O)NC(C)(C)C)c3ccccc23)s1
Emax at 16 h, 1 µM, %: 138

Value of Emax at 16 h, 1 µM reported for the compound "C[C@H](NS(=O)(=O)c1cc(-c2sc(C(=O)N[C@H]3C[C@H](C(=O)O)C3)nc2CC2CCCCC2)cc(C(C)(C)C)c1)C(F)(F)F" is 157

Entry "C[C@H](NS(=O)(=O)c1ccc(-c2sc(C(=O)N3CC4(C3)CS(=O)(=O)C4)nc2CC2CCC2)c(Cl)c1Cl)C(F)(F)F" , Emax at 16 h, 1 µM reported as 56

// field: Emax at 16 h, 1 µM; key: "C[C@H](NS(=O)(=O)c1ccc(-c2sc(C(=O)N[C@H]3C[C@H](C(=O)O)C3)nc2CC2CCC2)c2ccccc12)C(F)(F)F" ; value = 40

Looking up "C[C@H](NS(=O)(=O)c1ccc(-c2sc(C(=O)NC3CCS(=O)(=O)CC3)nc2CC2CC2)c2ccccc12)C(F)(F)F" , I see its Emax at 16 h, 1 µM listed as 99

For this compound ( "Cc1c(S(=O)(=O)NC(C)(C)C)ccc(-c2sc(C(=O)N[C@H]3C[C@H](C(=O)O)C3)nc2CC2CCCCC2)c1OC(F)F" ), measured Emax at 16 h, 1 µM is 86

Form field Emax at 16 h, 1 µM, entry "C[C@H](NS(=O)(=O)c1ccc(-c2sc(C(=O)NCC(C)(C)O)nc2-c2cccc(F)c2)c(Cl)c1Cl)C(F)(F)F" : 69

What the record says about "CC(C)(C)NS(=O)(=O)c1ncc(-c2sc(C(=O)N[C@H]3C[C@H](C(=O)O)C3)nc2CC2CCCCC2)c2ccccc12" : Emax at 16 h, 1 µM is 18

# compound "CC(C)(C)NS(=O)(=O)c1ccc(-c2sc(C(=O)N3CC4(C3)CS(=O)(=O)C4)nc2CC2CCCCC2)c(Cl)c1Cl" ; its Emax at 16 h, 1 µM = 139

Per the record, "CC(C)NS(=O)(=O)c1ccc(-c2sc(C(=O)N[C@H]3C[C@H](C(=O)O)C3)nc2CC2CCCCC2)c(C(F)F)c1Cl" has Emax at 16 h, 1 µM of 66

Record "CC(C)(CCO)NS(=O)(=O)c1ccc(-c2sc(C(=O)N[C@H]3C[C@H](C(=O)O)C3)nc2CC2CCCCC2)c2ccccc12" , field Emax at 16 h, 1 µM: 15
